- Measurement Protocol: Antimycobacterial activity against Mycobacterium massiliense isolate CIP108297 after 8 days by resazurin microtiter based colorimetric assay
- Assay type: functional, Mycobacterium abscessus subsp. massiliense
- Experimental Parameters: Mycobacteroides abscessus, isolate CIP108297, 192 h
Entries and their MIC
Dear colleague, please return just the value in µg/mL, with no unit written.

Observe how each entry below is paired with its result.
CC(NC(=O)c1cc2ccccc2[nH]1)C12CC3CC(CC(C3)C1)C2 (configuration not stated) = 8
Cc1cc(C)c2cc(C(=O)NC3CCCCC3)[nH]c2c1 = 0.25

Input `C[C@@H]1[C@H]2C[C@@H](C[C@H]1NC(=O)c1cc3ccccc3[nH]1)C2(C)C` , output reported MIC.
0.06

Input `O=C(NCC12CC3CC(CC(C3)C1)C2)c1cc2ccccc2[nH]1` , output reported MIC.
2

Input `Cc1cc(C)c2cc(C(=O)NC3CCCC3)[nH]c2c1` , output reported MIC.
8

###

- System: Mycobacteroides chelonae
- Measurement Protocol: Antimycobacterial activity against Mycobacterium chelonae ATCC 35752 after 8 days by resazurin microtiter based colorimetric assay
- Format: functional
- Experimental Parameters: ATCC 35752, 192 h
Measurement Kind: MIC

O=C(NC1CCCCCCC1)c1cc2ccccc2[nH]1 = > 32 µg/mL
Cc1cc(C)c2cc(C(=O)NCC34CC5CC(CC(C5)C3)C4)[nH]c2c1 = > 32 µg/mL
CCC12CC3CC(C1)CC(NC(=O)c1cc4c(C)cc(C)cc4[nH]1)(C3)C2 = > 32 µg/mL
O=C(NC1CCCCCC1)c1cc2ccccc2[nH]1 = > 32 µg/mL
CCCCCCCNC(=O)c1cc2c(C)cc(C)cc2[nH]1 = > 32 µg/mL
Cc1cc(C)c2cc(C(=O)NC3CCC(C)CC3)[nH]c2c1 (mixture of isomers) = ≤ 0.06 µg/mL
CCCCCCCCNC(=O)c1cc2ccccc2[nH]1 = > 32 µg/mL
Cc1cc(C)c2cc(C(=O)NC3CCCCCCC3)[nH]c2c1 = 0.063 µg/mL
O=C(NCC12CC3CC(CC(C3)C1)C2)c1cc2ccccc2[nH]1 = 1 µg/mL
O=C(NC1C2CC3CC(C2)CC1C3)c1cc2ccccc2[nH]1 (stereo not given) = > 32 µg/mL

Input `O=C(NC12CC3CC(CC(C3)C1)C2)c1cc2ccccc2[nH]1` , output reported MIC.
0.25 µg/mL

Input `Cc1cc(C)c2cc(C(=O)NC3CCCCC3)[nH]c2c1` , output reported MIC.
0.25 µg/mL

Input `Cc1cc(C)c2cc(C(=O)NC3CCCC3)[nH]c2c1` , output reported MIC.
2 µg/mL

Input CC(NC(=O)c1cc2ccccc2[nH]1)C12CC3CC(CC(C3)C1)C2 (stereo not given) , output reported MIC.
2 µg/mL

###

- Measurement Protocol: Antimycobacterial activity against Mycobacterium massiliense isolate CRM0019 after 8 days by resazurin microtiter based colorimetric assay
- Assay type: functional, Mycobacterium abscessus subsp. massiliense
- Experimental Parameters: Mycobacteroides abscessus, isolate CRM0019, 192 h
Measurement Kind: MIC

Observe how each entry below is paired with its result.
CCCCCCCNC(=O)c1cc2ccccc2[nH]1 = > 32 µg/mL
O=C(NC12CC3CC(CC(C3)C1)C2)c1cc2ccccc2[nH]1 = 0.25 µg/mL
O=C(NC1C2CC3CC(C2)CC1C3)c1cc2ccccc2[nH]1 (stereo unspecified) = 32 µg/mL
CCCCCCCCNC(=O)c1cc2ccccc2[nH]1 = > 32 µg/mL
O=C(NC1CCCCCCC1)c1cc2ccccc2[nH]1 = 32 µg/mL

Input `CCC12CC3CC(C1)CC(NC(=O)c1cc4c(C)cc(C)cc4[nH]1)(C3)C2` , output reported MIC.
> 32 µg/mL

Input `CCCCCCCNC(=O)c1cc2c(C)cc(C)cc2[nH]1` , output reported MIC.
> 32 µg/mL

Input `O=C(NC1CCCCCC1)c1cc2ccccc2[nH]1` , output reported MIC.
> 32 µg/mL
